Test system: tetrabenazine-induced sedation and depression
Procedure Details: Antitetrabenazine test: prevention of tetrabenazine-induced sedation and ptosis in mice
Type: in vivo, mice (Carworth CF1 S female)
Experimental Parameters: Mus musculus, po, 1 h, read-out: ED50 in antitetrabenazine test, blockade of exploratory loss (Explor.), oral, female mice; tetrabenazine 32 mg/kg i.p. 30 min later; examined 1 h after antagonist; normal exploratory activity (relief from sedation)
Below is a list of entries, each paired with its recorded ED50 value.
Measured Quantity: ED50 (mg/kg)

[
  {
    "Compound": "CCCCNCCON=C1c2ccccc2C2NC2c2ccccc21 (stereo not shown) [Example 15]",
    "Measured Quantity": "ED50",
    "Op": ">",
    "Endpoint Result": 81
  },
  {
    "Compound": "CN(C)CCON=C1c2ccccc2C2C(c3ccccc31)N2CC1CC1 (stereo not shown) [Example 21]",
    "Measured Quantity": "ED50",
    "Op": "=",
    "Endpoint Result": 11.8
  },
  {
    "Compound": "c1ccc2c(c1)C(=NOCCN1CCCCC1)c1ccccc1C1NC21 (stereo not shown) [R^2=drawing 45; R^1=H; Z=--]",
    "Measured Quantity": "ED50",
    "Op": ">",
    "Endpoint Result": 81
  },
  {
    "Compound": "c1ccc2c(c1)C(=NOCCN1CCOCC1)c1ccccc1C1NC21 (stereo not shown) [R^2=drawing 46; R^1=H; Z=--]",
    "Measured Quantity": "ED50",
    "Op": "=",
    "Endpoint Result": 16
  },
  {
    "Compound": "CCNCCON=C1c2ccccc2C2NC2c2ccccc21 (stereo not shown) [Example 14]",
    "Measured Quantity": "ED50",
    "Op": "=",
    "Endpoint Result": 9
  },
  {
    "Compound": "CN(C)CCON=C1c2ccccc2C2C(c3ccccc31)N2CC1CCC1 (stereo not shown) [Example 22]",
    "Measured Quantity": "ED50",
    "Op": "=",
    "Endpoint Result": 16
  },
  {
    "Compound": "CN(C)CCCON=C1c2ccccc2C2NC2c2ccccc21 (stereo not shown) [Example 9]",
    "Measured Quantity": "ED50",
    "Op": "=",
    "Endpoint Result": 32
  }
]

====

Procedure Details: Water solubility of the salts
Assay type: physicochemical
Experimental Parameters: salt as isolated

[
  {
    "Compound": "NCCON=C1c2ccccc2C2NC2c2ccccc21 (centres unmarked)",
    "water solubility (in words)": "Water Soluble"
  },
  {
    "Compound": "CN(C)CCON=C1c2ccccc2C2NC2c2ccccc21 (centres unmarked) [Example 17]",
    "water solubility (in words)": "Water Soluble"
  },
  {
    "Compound": "CN(C)CCON=C1c2ccccc2C2NC2c2ccccc21 (centres unmarked) [Example 18]",
    "water solubility (in words)": "Water Soluble"
  },
  {
    "Compound": "CNCCON=C1c2ccccc2C2NC2c2ccccc21 (centres unmarked)",
    "water solubility (in words)": "Water Soluble"
  }
]

// provenance: patent US4256742A
